system: ragweed (common ragweed, Ambrosia elatior); experiment: Test B pre-/postemergence plant response; format: in vivo; conditions: 62 g ai/ha, postemergence; 0 is no effect, 100 is complete control; 13 to 15 days
Note to self: Ragweed plant response rating (0 to 100 scale) under 80 means criterion met, ties and anything higher get criterion not met.

CCCn1c(-c2cccc(OC)c2)ncc(C(=O)C2=C(O)CCCC2=O)c1=O [Compound 100] ... criterion met
O=C1CCCC(O)=C1C(=O)c1cnc(-c2ccsc2)n(CC2CCCO2)c1=O (stereo not shown) [Compound 98] ... criterion met
COCCOCCn1c(-c2ccccc2)ncc(C(=O)C2=C(O)CCCC2=O)c1=O [Compound 91] ... criterion not met
COCCn1c(-c2cccs2)ncc(C(=O)C2=C(O)CCCC2=O)c1=O [Compound 108] ... criterion not met
COCCn1c(-c2ccco2)ncc(C(=O)C2=C(O)CCCC2=O)c1=O [Compound 111] ... criterion not met

Lookup: Strictly below 80: is that where Ragweed plant response rating (0 to 100 scale) of CCCCCCn1c(-c2ccccc2)ncc(C(=O)C2=C(O)CCCC2=O)c1=O [Compound 94] sits?
Found: criterion met

Lookup: Same question, CCCn1c(-c2ccsc2)ncc(C(=O)C2=C(O)CCCC2=O)c1=O [Compound 93] this time
Found: criterion met

* * *

Documented Plant response rating, Crabgrass, Large across a set of molecules
system: large crabgrass (Digitaria sanguinalis); assay: Test B pre-/postemergence plant response; assay type: in vivo; details: Postemergence, 125 g ai/ha; visual rating after 13 to 15 days, scale 0 (no effect) to 100 (complete control)
// print number alone

Take a look at these entries with their results.
Cc1cc(F)ccc1-n1c(-c2ccccc2)ncc(C(=O)C2=C(O)CCCC2=O)c1=O ... 95
CCCCn1c(CCC)ncc(C(=O)C2=C(O)CCCC2=O)c1=O ... 100
Cc1ccc(-n2c(-c3cccc(Cl)c3)ncc(C(=O)C3=C(O)CCCC3=O)c2=O)cc1 ... 85
Cc1ccc(F)c(-n2c(-c3ccccc3)ncc(C(=O)C3=C(O)CCCC3=O)c2=O)c1 ... 85
Cc1cccc(-n2c(-c3ccccc3)ncc(C(=O)C3=C(O)CCCC3=O)c2=O)c1F ... 90

Lookup: Would you mind telling me what Plant response rating, Crabgrass, Large value was observed for O=C1CCCC(O)=C1C(=O)c1cnc(-c2ccccc2)n(-c2ccc(F)cc2)c1=O ?
Found: 95

Lookup: Here is the next molecule: CCCc1ncc(C(=O)C2=C(O)CCCC2=O)c(=O)n1-c1cccc(C)c1
Found: 90

Lookup: Follow-up item: Cc1ccc(Cl)cc1-n1c(-c2ccccc2)ncc(C(=O)C2=C(O)CCCC2=O)c1=O
Found: 90

Lookup: Would you kindly repeat that for O=C1CCCC(O)=C1C(=O)c1cnc(-c2cccc(Cl)c2)n(-c2ccccc2)c1=O ?
Found: 95

* * *

test system: kochia (Kochia scoparia); test: Test B pre-/postemergence plant response; format: in vivo; conditions: Postemergence, 250 g ai/ha; scale 0 to 100 (0 no effect, 100 complete control)
value.kind: Plant response rating, Kochia
Please give only the number in your answer, with no unit.

Lookup: Recorded Plant response rating, Kochia for COCCn1c(-c2cccs2)ncc(C(=O)C2=C(O)CCCC2=O)c1=O [Compound 108] , please?
Found: 100

Lookup: Would you mind doing O=C1CCCC(O)=C1C(=O)c1cnc(-c2ccsc2)n(CC2CCCO2)c1=O (stereo not drawn) [Compound 98] as well?
Found: 98

Lookup: Then this compound: O=C1CCCC(O)=C1C(=O)c1cnc(-c2ccc(Br)cc2)n(-c2ccccc2)c1=O [Compound 70]
Found: 98

Lookup: Would you mind doing CCCCc1ncc(C(=O)C2=C(O)CCCC2=O)c(=O)n1-c1ccccc1C [Compound 62] as well?
Found: 80

Lookup: Would you mind doing Cc1ccc(F)c(-n2c(-c3ccccc3)ncc(C(=O)C3=C(O)CCCC3=O)c2=O)c1 [Compound 51] as well?
Found: 35

Lookup: And what about the compound O=C1CCCC(O)=C1C(=O)c1cnc(C2CC2)n(-c2ccccc2)c1=O [Compound 87] ?
Found: 100

* * *

tested on: woolly cupgrass (Eriochloa villosa); experiment: Test B pre-/postemergence plant response; type: in vivo; settings: Preemergence, 31 g ai/ha; scale 0 to 100 (0 no effect, 100 complete control)
value.kind: Plant response rating, Cupgrass, Woolly
Please give only the number in your answer, with no unit.

Cc1ccc(F)c(-n2c(-c3ccccc3)ncc(C(=O)C3=C(O)CCCC3=O)c2=O)c1 ... 10
CCCc1ncc(C(=O)C2=C(O)CCCC2=O)c(=O)n1-c1ccccc1 ... 0
O=C1CCCC(O)=C1C(=O)c1cnc(-c2ccccc2)n(-c2ccccc2Br)c1=O ... 0
O=C1CCCC([O-])=C1C(=O)c1cnc(-c2ccccc2)n(-c2ccccc2)c1=O.[K+] ... 0
O=C1CCCC(O)=C1C(=O)c1cnc(-c2cccs2)n(-c2ccccc2)c1=O ... 25

Lookup: Which measured Plant response rating, Cupgrass, Woolly value corresponds to Cc1cccc(-n2c(-c3ccccc3)ncc(C(=O)C3=C(O)CCCC3=O)c2=O)c1C ?
Found: 0

Lookup: Same question for CCCCn1c(C2CC2)ncc(C(=O)C2=C(O)CCCC2=O)c1=O please.
Found: 10

Lookup: Same for CCc1cccc(-n2c(-c3ccccc3)ncc(C(=O)C3=C(O)CCCC3=O)c2=O)c1
Found: 0

Lookup: // query: Cc1cc(F)ccc1-n1c(-c2ccccc2)ncc(C(=O)C2=C(O)CCCC2=O)c1=O
Found: 10

* * *

In this section, each of the compounds is paired with its reported Plant response rating, Pigweed.
system: pigweed (Amaranthus retroflexus); test: Test B pre-/postemergence plant response; type: in vivo; conditions: 31 g ai/ha, postemergence; scale 0 to 100, 0 is no effect, 100 is complete control
Reply: number alone, nothing else.

Some compounds with known Plant response rating, Pigweed results, for comparison:
CCCc1ncc(C(=O)C2=C(O)CCCC2=O)c(=O)n1CCC ... 80
CCCn1c(-c2ccccc2)ncc(C(=O)C2=C(O)CCCC2=O)c1=O ... 80
CCCCn1c(CCC)ncc(C(=O)C2=C(O)CCCC2=O)c1=O ... 100

Note: attention shifts to another entry.
Lookup: Which Plant response rating, Pigweed is reported for this compound? Cc1ccc(F)c(-n2c(-c3ccccc3)ncc(C(=O)C3=C(O)CCCC3=O)c2=O)c1
Found: 85

* * *

tested on: soybean (Glycine max); assay: Test B pre-/postemergence plant response; format: in vivo; conditions: Postemergence, 62 g ai/ha; scale 0 (no effect) to 100 (complete control); 13 to 15 days
The following compounds are shown together with reported Plant response rating, Soybean values.

Examples from the recorded data:
Cc1cccc(-n2c(-c3ccccc3)ncc(C(=O)C3=C(O)CCCC3=O)c2=O)c1F [Compound 58] ... 85
Cc1cccc(-n2c(-c3cccc(Cl)c3)ncc(C(=O)C3=C(O)CCCC3=O)c2=O)c1 [Compound 45] ... 95
Cc1cc(F)ccc1-n1c(-c2ccccc2)ncc(C(=O)C2=C(O)CCCC2=O)c1=O [Compound 48] ... 95

Lookup: Item: Cc1ccc(F)c(-n2c(-c3ccccc3)ncc(C(=O)C3=C(O)CCCC3=O)c2=O)c1 [Compound 51] Test system: soybean (Glycine max) Read-out: Plant response rating, Soybean Value: ?
Found: 90

Lookup: For CCCn1c(-c2ccccc2)ncc(C(=O)C2=C(O)CCCC2=O)c1=O [Compound 50] then?
Found: 85

* * *

molecules and their reported Plant response rating, Ragweed
test system: ragweed (common ragweed, Ambrosia elatior); experiment: Test B pre-/postemergence plant response; format: in vivo; details: Preemergence, 31 g ai/ha; scale 0 to 100 (0 no effect, 100 complete control)
Form: value (number only, do not type unit).

Examples from the recorded data:
CCn1c(-c2ccccc2)ncc(C(=O)C2=C(O)CCCC2=O)c1=O [Compound 49] ... 70
Cc1ccc(F)c(-n2c(-c3ccccc3)ncc(C(=O)C3=C(O)CCCC3=O)c2=O)c1 [Compound 51] ... 65
Cc1cccc(-n2c(-c3ccccc3)ncc(C(=O)C3=C(O)CCCC3=O)c2=O)c1C [Compound 27] ... 85

The record that follows has no Plant response rating, Ragweed shown yet.
Lookup: Look up Plant response rating, Ragweed: COCCCn1c(-c2cc(F)cc(F)c2)ncc(C(=O)C2=C(O)C3CCC(C3)C2=O)c1=O (centres unmarked) [Compound 244]
Found: 70

* * *

test system: wheat (Triticum aestivum); assay: Test B pre-/postemergence plant response; type: in vivo; details: 31 g ai/ha, postemergence; scale 0 to 100, 0 is no effect, 100 is complete control
value.kind: Plant response rating, Wheat
Give your answer as a number; write no unit.

The examples below pair each entry with its known result.
COCCOCCn1c(-c2ccccc2)ncc(C(=O)C2=C(O)CCCC2=O)c1=O [Compound 91] ... 0
Cc1ccc(F)c(-n2c(-c3ccccc3)ncc(C(=O)C3=C(O)CCCC3=O)c2=O)c1 [Compound 51] ... 5
CCn1c(-c2ccccc2)ncc(C(=O)C2=C(O)CCCC2=O)c1=O [Compound 49] ... 0

Lookup: Could you tell me which Plant response rating, Wheat is on file for CCCn1c(-c2ccccc2)ncc(C(=O)C2=C(O)CCCC2=O)c1=O [Compound 50] ?
Found: 0

Lookup: Try the compound CCOCCn1c(-c2ccccc2)ncc(C(=O)C2=C(O)CCCC2=O)c1=O [Compound 96]
Found: 0
